- MEASURED ON: SARS-CoV-2 spike protein trimer, Kappa (B.1.617.1) variant (SARS-CoV-2, UniProt P0DTC2 16-1213)
- METHOD SUMMARY: ELISA, purified IgG
MEASURE NAME: binding result

BINDER	MEASURED RESULT
SEQ ID NO 12 (antibody, V domains shown, also called selected clone from LxC libraries; LxC clone) VH: EVQLVESGGGLVQPGGSLRLSCTVSGFSLSTYAMSWVRQAPGKGLEWIGVIASNADTYYASWAKGRFTISRDNSKNTLYLQMNSLRAEDTAVYYCARHPGSAGYGYAVYYAMDPWGQGTLVTVSS VL: DIQMTQSPSSLSASVGDRVTITCQASQPIHYAINWYQQKPGKAPKLLIYGTSHRKMGVPSRFSGSGSGTDYTLTISSLQPEDFATYYCQQGYIVALKFGGGTKVEIK	binds
